ASSAY TARGET: Human recombinant Top1 (Homo sapiens, UniProt P11387)
Construct: made in house
Sequence (P11387 whole entry): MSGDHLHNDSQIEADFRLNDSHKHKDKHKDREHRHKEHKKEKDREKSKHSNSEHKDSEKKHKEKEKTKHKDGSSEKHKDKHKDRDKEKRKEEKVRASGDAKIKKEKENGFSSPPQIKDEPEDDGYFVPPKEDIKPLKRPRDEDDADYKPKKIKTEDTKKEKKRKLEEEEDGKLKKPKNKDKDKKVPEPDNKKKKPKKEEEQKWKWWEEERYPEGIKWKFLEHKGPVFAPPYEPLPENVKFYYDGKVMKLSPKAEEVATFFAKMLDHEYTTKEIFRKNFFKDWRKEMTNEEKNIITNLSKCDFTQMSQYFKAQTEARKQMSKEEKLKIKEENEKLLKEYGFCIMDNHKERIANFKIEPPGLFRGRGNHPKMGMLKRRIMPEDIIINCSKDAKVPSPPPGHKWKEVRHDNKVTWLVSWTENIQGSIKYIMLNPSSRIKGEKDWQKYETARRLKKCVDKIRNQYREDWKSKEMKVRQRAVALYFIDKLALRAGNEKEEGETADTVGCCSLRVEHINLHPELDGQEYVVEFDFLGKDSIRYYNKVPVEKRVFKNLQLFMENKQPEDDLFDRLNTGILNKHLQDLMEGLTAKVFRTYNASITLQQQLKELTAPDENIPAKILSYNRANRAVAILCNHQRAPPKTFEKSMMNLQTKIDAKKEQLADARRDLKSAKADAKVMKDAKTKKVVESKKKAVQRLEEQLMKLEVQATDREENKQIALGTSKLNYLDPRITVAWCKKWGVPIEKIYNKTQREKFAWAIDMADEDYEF
METHOD DESCRIPTION: Top1-mediated DNA cleavage assay
Format: biochemical
Design: key: 0, no inhibitory activity; +, between 20 and 50% activities; ++, between 50 and 75% activity; +++, between 75 and 95% activity; ++++, equipotent
CONDITIONS USED: graded relative to 1 μM camptothecin
TEST READOUT: Top 1 Cleavage

Ask: Item COc1cc2c3c(n(CCCN4CCOCC4)c(=O)c2cc1OC(C)=O)-c1cc2c(cc1C3=O)OCO2 [Compound 16] has what recorded Top 1 Cleavage?
Reply: 0
